- Procedure text: Stability of cannabinoid compounds and Vitamin E components in Beverage 2 (AB Red) by LCMSMS
- Type: physicochemical
- Condition info: stored at 21-25° C., 90 days
Threshold 2 µg/mL: Stability of Plant-Derived Cannabinoid Compounds in AB Red strictly smaller gives true, otherwise false.

• C=C(C)[C@@H]1CCC(C)=C[C@H]1c1c(O)cc(CCCCC)c(C(=O)O)c1O [CBDA, cannabidiolic acid] = true
• CCCc1cc(O)c2c(c1)OC(C)(C)[C@@H]1CCC(C)=C[C@@H]21 [THCV, delta-9-tetrahydrocannabivarin] = false
• CCCCCc1cc(O)c2c(c1)OC1(C)CCC3C1C2C3(C)C (stereo not drawn) [CBL, cannabicyclol] = true
• C=C(C)[C@@H]1CCC(C)=C[C@H]1c1c(O)cc(CCC)cc1O [CBDV, cannabidivarin] = true
• CCCCCc1cc(O)c2c(c1)OC(C)(C)c1ccc(C)cc1-2 [CBN, cannabinol] = false
• CCCCCc1cc(O)c(C/C=C(\C)CCC=C(C)C)c(O)c1 [CBG, cannabigerol] = false
• CCCCCc1cc2c(c(O)c1C(=O)O)[C@@H]1C=C(C)CC[C@H]1C(C)(C)O2 [D9 THCA, delta-9-tetrahydrocannabinolic acid] = true
• CCCCCc1cc(O)c2c(c1)OC(C)(CCC=C(C)C)C=C2 (stereo not drawn) [CBC, cannabichromene] = true
• CCCCCc1cc(O)c2c(c1)OC(C)(C)[C@@H]1CCC(C)=C[C@@H]21 [D9 THC, delta-9-tetrahydrocannabinol, reference compound] = false

---

- Procedure text: Stability of cannabinoid entourage and Vitamin E components of the powder concentrate by LCMSMS
- Assay type: physicochemical
- Condition info: powder stored at 21-25° C.; 17 days
Measured property: Stability of Plant-Derived Cannabinoid Compounds in Powder Concentrate (mg/g powder)

• CCCCCc1cc2c(c(O)c1C(=O)O)[C@@H]1C=C(C)CC[C@H]1C(C)(C)O2 [D9 THCA, delta-9-tetrahydrocannabinolic acid] = 0.156
• C=C(C)[C@@H]1CCC(C)=C[C@H]1c1c(O)cc(CCCCC)cc1O [CBD, cannabidiol, reference compound] = 5.97
• CCCc1cc(O)c2c(c1)OC(C)(C)[C@@H]1CCC(C)=C[C@@H]21 [THCV, delta-9-tetrahydrocannabivarin] = 0.681
• CCCCCc1cc(O)c2c(c1)OC1(C)CCC3C1C2C3(C)C (stereo not drawn) = 0.049
• CCCCCc1cc(O)c(C/C=C(\C)CCC=C(C)C)c(O)c1 = 1.06
• CCCCCc1cc(O)c2c(c1)OC(C)(C)[C@@H]1CCC(C)=C[C@@H]21 [D9 THC, delta-9-tetrahydrocannabinol, reference compound] = 2.54

---

// reported Stability of Plant-Derived Cannabinoid Compounds in AB White, 8° C. for each item listed
- Procedure text: Stability of cannabinoid compounds and Vitamin E components in Beverage 1 (AB White) by LCMSMS
- Format: physicochemical
- Condition info: AB White stored at 8° C.; 210 days
Measured property: Stability of Plant-Derived Cannabinoid Compounds in AB White, 8° C. (µg/mL)

* C=C(C)[C@@H]1CCC(C)=C[C@H]1c1c(O)cc(CCCCC)cc1O [CBD, cannabidiol, reference compound] | 27.76
* C=C(C)[C@@H]1CCC(C)=C[C@H]1c1c(O)cc(CCCCC)c(C(=O)O)c1O | 1.68
* CCCCCc1cc(O)c2c(c1)OC(C)(CCC=C(C)C)C=C2 (stereo not drawn) | 0.309

Hello, the source for this data is patent US20260130395A1, in case you need it.
